tested on: Fer (mouse); test: phosphorylation enrichment, bacterial display (enrichment ratio); higher = better substrate or ligand; peptides without Tyr show the background;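 further: 11-residue human phosphosite peptides and single-mutation variants displayed on the E. coli surface, counted by deep sequencing, each peptide's frequency after selection divided by its frequency in the unselected input library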;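 further: frequency after pTyr selection over input frequency; kinase dosed for 20-30% of maximal phosphorylation in three min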
Tick 1.0 if phosphorylation enrichment is 0.6 or greater. Tick 0.0 if phosphorylation enrichment is less than 0.6.

sequence-chain | class
VHNLDYYKETT [FGFR3_Y647_K650E] | 0.0
YMRGMYFRMKD [PLA2G6_Y541] | 0.0
EGTATYAAAVL [JUP_Y644] | 1.0
QLAPQYTYTQG [FLNA_Y1761_A1764T] | 0.0
DENWFYTRAAS [RPS19_Y54] | 0.0
WCKPLYFSCAV [MMS22L_Y28_P27L] | 0.0
VSSPKYGSNDE [TMCC2_Y473_D476N] | 0.0
FQSKHYACIRQ [TIMP3_Y182_YF] | 0.0

Hi team, for PHRSIYFSSPK [MPG_Y75_Y71H] , is the recorded phosphorylation enrichment at or above 0.6?
1.0

Hi team, for KPPFSYNALIM [FOXG1_Y186] , is the recorded phosphorylation enrichment at or above 0.6?
0.0

Hi team, for HNLDFYKMTTN [FGFR3_Y648_K650M_YF] , is the recorded phosphorylation enrichment at or above 0.6?
1.0

Hi team, for ATVRPYRPYII [LRP5_Y1528_A1525V] , is the recorded phosphorylation enrichment at or above 0.6?
0.0

Hi team, for HESEIYGKVCY [CSRP3_Y57_C58G] , is the recorded phosphorylation enrichment at or above 0.6?
1.0

Hi team, for QGGRRYMMIVD [GAA_Y438] , is the recorded phosphorylation enrichment at or above 0.6?
1.0

Hi team, for DVRQEYSGMIL [PLXND1_Y616_P617S] , is the recorded phosphorylation enrichment at or above 0.6?
0.0

Hi team, for RLCQDYDIIGP [ANK1_Y1073_T1075I] , is the recorded phosphorylation enrichment at or above 0.6?
1.0

Hi team, for RFLRGYEQDAY [HLA-A_Y137_R138E] , is the recorded phosphorylation enrichment at or above 0.6?
0.0

Hi team, for LMIEEYLTKEP [BAG3_Y457_L462P] , is the recorded phosphorylation enrichment at or above 0.6?
1.0

Hi team, for CPASVYTKRCS [CPT2_Y508_R503C] , is the recorded phosphorylation enrichment at or above 0.6?
0.0

Hi team, for RDIHDYIKHLG [UNC13C_Y308] , is the recorded phosphorylation enrichment at or above 0.6?
0.0

Hi team, for SVVVPYEPREV [TP53_Y220_P223R] , is the recorded phosphorylation enrichment at or above 0.6?
0.0

Hi team, for KGKLIYLLRDS [NXPE1_Y350_G353R] , is the recorded phosphorylation enrichment at or above 0.6?
0.0

Hi team, for LVSCAYQVARG [FGFR1_Y605] , is the recorded phosphorylation enrichment at or above 0.6?
0.0

Hi team, for KPSLKYVTYGN [GALNTL5_Y404_G401S] , is the recorded phosphorylation enrichment at or above 0.6?
0.0
